Assay: Inhibition of Vibrio cholerae gamma carbonic anhydrase incubated for 30 mins prior to testing measured for 10 to 100 secs by phenol red-based stopped-flow CO2 hydration assay
Can you tell me Ki for the items I'm about to list?
Value expressed in nM; do not type the unit.

Given "O=[N+]([O-])c1ccc2c(c1)B(O)OC2" , state its recorded Ki.
818

Param item: OB1OCc2cc(F)ccc21 [TAVABOROLE]
841

Param item: "O=C(Nc1ccccc1)Nc1ccc2c(c1)B(O)OC2"
705

Param item: "OB1OCc2ccc(NC(=S)Nc3ccc4ccccc4c3)cc21"
2970

Param item: "Nc1ccc2c(c1)B(O)OC2"
1170

Param item: "CC(=O)c1ccc(NC(=O)Nc2ccc3c(c2)B(O)OC3)cc1"
1130

Param item: "OB1OCc2ccc(NC(=S)NCCc3ccccc3)cc21"
554

Param item: "O=C(Nc1ccc2c(c1)B(O)OC2)Nc1c(Cl)cc(Cl)cc1Cl"
895

Param item: "Cc1ccc(NC(=S)Nc2ccc3c(c2)B(O)OC3)cc1"
1760

Param item: "OB1OCc2ccc(NC(=S)Nc3ccccc3)cc21"
834

Param item: "O=C(Nc1ccc(C(F)(F)F)cc1)Nc1ccc2c(c1)B(O)OC2"
957

Param item: "O=[N+]([O-])c1ccc(NC(=S)Nc2ccc3c(c2)B(O)OC3)cc1"
687
